System: 777334-354-R2-J4-PDC tumor spheroids with HUVEC/MSC, viability
Test: Anticancer human tumor 777334-354-R2-J4-PDC patient-derived pancreatic adenocarcinoma cell line growth inhibition [GQUAD]
Settings: second compound 0.1 µM; first compound 1 µM; hits give low values
From the text: DNA G-quadruplex Stabilizer Agents in Combinations in Complex Spheroids A high-throughput screen of multi-cell type tumor spheroids was designed to identify active combinations of DNA G-quadruplex stabilizer agents and targeted small molecules. […] Compounds. […] If the clinical Cmax for an agent had not been determined, the highest concentration tested was 10 microM. […]
Kindly supply the reported viability, T/C values for the records listed here.

Before answering, review these 2 worked examples.
| Compound | Measurement target | Quantity | Observed measurement |
| --- | --- | --- | --- |
| O=C(NO)c1cnc(N2CCN(S(=O)(=O)c3ccc4ccccc4c3)CC2)nc1 + Cc1cnc(CNC(=O)c2c(=O)c3ccc(N4CCCN(C)CC4)nc3n3c2sc2ccccc23)cn1 | 777334-354-R2-J4-PDC tumor spheroids with HUVEC/MSC, viability | viability, T/C | 36.6% |
| CC(=O)O[C@H]1C(=O)[C@@]2(C)[C@H]([C@H](OC(=O)c3ccccc3)[C@]3(O)C[C@H](OC(=O)[C@H](O)[C@@H](NC(=O)c4ccccc4)c4ccccc4)C(C)=C1C3(C)C)[C@]1(OC(C)=O)CO[C@@H]1C[C@@H]2O + CN(C)c1ccc(Nc2c3ccc(NC(=O)CCN4CCCC4)cc3nc3cc(NC(=O)CCN4CCCC4)ccc23)cc1 | 777334-354-R2-J4-PDC tumor spheroids with HUVEC/MSC, viability | viability, T/C | 38.9% |

# input for lookup
Q: Request the reported viability, T/C associated with COc1ccc([C@@H](O)c2cc(-c3ncnc4cc(N5CCOCC5)ccc34)c(F)cc2Cl)nn1 + CN(C)c1ccc(Nc2c3ccc(NC(=O)CCN4CCCC4)cc3nc3cc(NC(=O)CCN4CCCC4)ccc23)cc1
Result: 68.8%

----------
Test system: 777334-354-R2-J4-PDC tumor spheroids with HUVEC/MSC, viability
Experiment: Anticancer human tumor 777334-354-R2-J4-PDC cell line growth inhibition [GQUAD];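 note: spheroids exposed to compounds for 7 days before readout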
Settings: second compound 0.316 µM; first compound 0.0316 µM; hits give low values
Mark criterion met only for viability, T/C values smaller than 90%; exact matches and larger values are criterion not met.

Q: Consider the molecule CC[C@@]1(O)C(=O)OCc2c1cc1n(c2=O)Cc2cc3c(CN(C)C)c(O)ccc3nc2-1 + Cc1[nH]c2ccc(F)cc2c1-c1nc2c3cccnc3c3ncccc3c2[nH]1 . Is its viability, T/C strictly less than 90%?
Result: criterion met

----------
Tested on: 777334-354-R2-J4-PDC tumor spheroids with HUVEC/MSC, viability
Test: Anticancer human tumor 777334-354-R2-J4-PDC cell line growth inhibition [GQUAD]; active means viability on the fitted dose curve at most 10% of control; inactive means the rest;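 note: spheroids exposed to compounds for 7 days before readout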
Details: second compound 3.16 µM; first compound 1 µM
Your response should consist of one outcome taken from label 1 = active, label 0 = inactive

| Compound | Measurement target | Classification |
| --- | --- | --- |
| COc1cccc2c1C(=O)c1c(O)c3c(c(O)c1C2=O)CC(O)(C(=O)CO)CC3OC1CC(N)C(O)C(C)O1 (stereo unspecified) + Cc1cnc(CNC(=O)c2c(=O)c3ccc(N4CCCN(C)CC4)nc3n3c2sc2ccccc23)cn1 | 777334-354-R2-J4-PDC tumor spheroids with HUVEC/MSC, viability | label 0 |
| COc1ncnc(C2CC2)c1-c1ncc2cnn(Cc3ccc(-c4nc(C(F)(F)F)cn4C(C)C)cc3)c2n1 + CN(C)c1ccc(Nc2c3ccc(NC(=O)CCN4CCCC4)cc3nc3cc(NC(=O)CCN4CCCC4)ccc23)cc1 | 777334-354-R2-J4-PDC tumor spheroids with HUVEC/MSC, viability | label 0 |
| CC(C)n1c(=O)n(C)c2cnc3cc(F)c(-c4ccc(OCCCN5CCCCC5)nc4)cc3c21 + Cc1[nH]c2ccc(F)cc2c1-c1nc2c3cccnc3c3ncccc3c2[nH]1 | 777334-354-R2-J4-PDC tumor spheroids with HUVEC/MSC, viability | label 0 |
| Cc1cccc(N(C)C(=O)C2C(O)CCN2c2nc(C)cc(C(F)(F)F)c2C#N)c1 (stereo unspecified) + Cc1[nH]c2ccc(F)cc2c1-c1nc2c3cccnc3c3ncccc3c2[nH]1 | 777334-354-R2-J4-PDC tumor spheroids with HUVEC/MSC, viability | label 0 |
| O=c1[nH]cc(F)c(=O)[nH]1 + Cc1[nH]c2ccc(F)cc2c1-c1nc2c3cccnc3c3ncccc3c2[nH]1 | 777334-354-R2-J4-PDC tumor spheroids with HUVEC/MSC, viability | label 0 |
| CC1COCCN1c1cc(C2(O)CC3CCC(C2)O3)c2cnn(-c3ccn[nH]3)c2n1 (stereo unspecified) + Cc1[nH]c2ccc(F)cc2c1-c1nc2c3cccnc3c3ncccc3c2[nH]1 | 777334-354-R2-J4-PDC tumor spheroids with HUVEC/MSC, viability | label 1 |
| CC(C)(O)C1CCC(Nc2ccc3ncc(-c4cccc(C(F)(F)F)c4)n3n2)CC1 (stereo unspecified) + Cc1cnc(CNC(=O)c2c(=O)c3ccc(N4CCCN(C)CC4)nc3n3c2sc2ccccc23)cn1 | 777334-354-R2-J4-PDC tumor spheroids with HUVEC/MSC, viability | label 0 |
| O=C(c1cc(Cc2n[nH]c(=O)c3ccccc23)ccc1F)N1CCN(C(=O)C2CC2)CC1 + Cc1cnc(CNC(=O)c2c(=O)c3ccc(N4CCCN(C)CC4)nc3n3c2sc2ccccc23)cn1 | 777334-354-R2-J4-PDC tumor spheroids with HUVEC/MSC, viability | label 0 |
| C=CCn1c(=O)c2cnc(Nc3ccc(N4CCN(C)CC4)cc3)nc2n1-c1cccc(C(C)(C)O)n1 + CN(C)c1ccc(Nc2c3ccc(NC(=O)CCN4CCCC4)cc3nc3cc(NC(=O)CCN4CCCC4)ccc23)cc1 | 777334-354-R2-J4-PDC tumor spheroids with HUVEC/MSC, viability | label 0 |
| CC1COCCN1c1cc(C2(O)CC3CCC(C2)O3)c2cnn(-c3ccn[nH]3)c2n1 (stereo unspecified) + Cc1cnc(CNC(=O)c2c(=O)c3ccc(N4CCCN(C)CC4)nc3n3c2sc2ccccc23)cn1 | 777334-354-R2-J4-PDC tumor spheroids with HUVEC/MSC, viability | label 0 |

Could you now consider this next compound?
Q: For this compound, state the assay outcome: O=C(NO)c1cnc(N2CCN(S(=O)(=O)c3ccc4ccccc4c3)CC2)nc1 + Cc1[nH]c2ccc(F)cc2c1-c1nc2c3cccnc3c3ncccc3c2[nH]1
Result: label 0

----------
I'd be grateful if you could share measured viability, T/C for these entries.
Tested on: 777334-354-R2-J4-PDC tumor spheroids with HUVEC/MSC, viability
Experiment: Anticancer human tumor 777334-354-R2-J4-PDC cell line growth inhibition [GQUAD];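 note: spheroids exposed to compounds for 7 days before readout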
Conditions: second compound 0.316 µM; first compound 0.0316 µM; hits give low values
Numbers only, in %.

| Compound | Measurement target | Unit name | viability, T/C |
| --- | --- | --- | --- |
| C#Cc1c(F)ccc2cc(O)cc(-c3ncc4c(N5CC6CCC(C5)N6)nc(OCC56CCCN5CC(F)C6)nc4c3F)c12 (stereo not drawn) + Cc1[nH]c2ccc(F)cc2c1-c1nc2c3cccnc3c3ncccc3c2[nH]1 | 777334-354-R2-J4-PDC tumor spheroids with HUVEC/MSC, viability | % | 51.2 |
| CC1COCCN1c1cc(C2(O)CC3CCC(C2)O3)c2cnn(-c3ccn[nH]3)c2n1 (stereo not drawn) + CN(C)c1ccc(Nc2c3ccc(NC(=O)CCN4CCCC4)cc3nc3cc(NC(=O)CCN4CCCC4)ccc23)cc1 | 777334-354-R2-J4-PDC tumor spheroids with HUVEC/MSC, viability | % | 96.3 |

The record that follows has no viability, T/C shown yet.
Q: Recall the recorded viability, T/C for Cc1[nH]c2ccccc2c1CCNCc1ccc(/C=C/C(=O)NO)cc1 + Cc1[nH]c2ccc(F)cc2c1-c1nc2c3cccnc3c3ncccc3c2[nH]1 with 777334-354-R2-J4-PDC tumor spheroids with HUVEC/MSC, viability and state it.
Result: 92.7

----------
Tested on: 777334-354-R2-J4-PDC tumor spheroids with HUVEC/MSC, viability
Assay: Anticancer human tumor 777334-354-R2-J4-PDC cell line growth inhibition [GQUAD];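 note: spheroids exposed to compounds for 7 days before readout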
Details: second compound 1 µM; first compound 0.0316 µM; hits give low values
Give viability, T/C for every item shown.
Answers are plain numbers, in %.

Solved cases (3 shown):
| Compound | Unit name | viability, T/C |
| --- | --- | --- |
| C=CC(=O)N1CCN(c2nc(=O)n(-c3c(C)ccnc3C(C)C)c3nc(-c4c(O)cccc4F)c(F)cc23)C(C)C1 (centres undefined) + Cc1[nH]c2ccc(F)cc2c1-c1nc2c3cccnc3c3ncccc3c2[nH]1 | % | 81.3 |
| Nc1ccn(C2OC(CO)C(O)C2(F)F)c(=O)n1 (centres undefined) + Cc1cnc(CNC(=O)c2c(=O)c3ccc(N4CCCN(C)CC4)nc3n3c2sc2ccccc23)cn1 | % | 67.9 |
| CC1COCCN1c1cc(-c2ccnn2C)c2ccnc(-c3ccn[nH]3)c2n1 (centres undefined) + Cc1[nH]c2ccc(F)cc2c1-c1nc2c3cccnc3c3ncccc3c2[nH]1 | % | 68.7 |

Below is a list of compounds. For each, state its recorded viability, T/C.
1. Cc1[nH]c2ccccc2c1CCNCc1ccc(/C=C/C(=O)NO)cc1 + Cc1[nH]c2ccc(F)cc2c1-c1nc2c3cccnc3c3ncccc3c2[nH]1
2. CC[C@@]1(O)C(=O)OCc2c1cc1n(c2=O)Cc2cc3c(CN(C)C)c(O)ccc3nc2-1 + CN(C)c1ccc(Nc2c3ccc(NC(=O)CCN4CCCC4)cc3nc3cc(NC(=O)CCN4CCCC4)ccc23)cc1
3. C=CC(=O)N1CCN(c2nc(=O)n(-c3c(C)ccnc3C(C)C)c3nc(-c4c(O)cccc4F)c(F)cc23)C(C)C1 (centres undefined) + CN(C)c1ccc(Nc2c3ccc(NC(=O)CCN4CCCC4)cc3nc3cc(NC(=O)CCN4CCCC4)ccc23)cc1
4. O=C(c1cc(Cc2n[nH]c(=O)c3ccccc23)ccc1F)N1CCN(C(=O)C2CC2)CC1 + Cc1[nH]c2ccc(F)cc2c1-c1nc2c3cccnc3c3ncccc3c2[nH]1
5. COc1cc(C2c3cc4c(cc3C(OC3OC5COC(C)OC5C(O)C3O)C3COC(=O)C23)OCO4)cc(OC)c1O (centres undefined) + Cc1cnc(CNC(=O)c2c(=O)c3ccc(N4CCCN(C)CC4)nc3n3c2sc2ccccc23)cn1
6. Cc1[nH]c2ccccc2c1CCNCc1ccc(/C=C/C(=O)NO)cc1 + CN(C)c1ccc(Nc2c3ccc(NC(=O)CCN4CCCC4)cc3nc3cc(NC(=O)CCN4CCCC4)ccc23)cc1

Result:
1: 91.2; 2: 88.1; 3: 92.8; 4: 75.5; 5: 68.4; 6: 79

meta.source: PubChem BioAssay AID2060499
